tgt: T1, Recombinant Human DLL4 (R&D Systems Cat#1506-D4/CF) (human, UniProt Q9NR61 27-524)
T1 construct: Bought recombinant protein; also called delta-like protein 4; rHuman DLL4
assay-name: ECL multispot (MSD) binding assay, antigen spotted on plate;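 note: purified Fab incubated 1 h at 20 °C on antigen spots, detected with TAG-labelled antibody, electrochemiluminescence compared with each well's blank, signal-to-blank ratio ≥4 counted as hit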
Consider the following binders and their measured ECL signal readings.
parameter: ECL signal

binder | reported
Fab VH1-46_IGHD6-6*01_IGHJ1*01 S102A/S103P/S104F/H111F (APFF) & L6_IGKJ1*01 S31P (Fab, V domains shown, Tested as Fab (CH1 with His6/Flag tags, kappa CL) made in E. coli; also called APFF / S31P) VH: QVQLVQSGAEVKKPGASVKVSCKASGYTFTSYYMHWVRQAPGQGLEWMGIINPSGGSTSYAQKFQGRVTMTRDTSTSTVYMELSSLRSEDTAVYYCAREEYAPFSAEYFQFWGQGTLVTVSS VL: EIVLTQSPATLSLSPGERATLSCRASQSVSPYLAWYQQKPGQAPRLLIYDASNRATGIPARFSGSGSGTDFTLTISSLEPEDFAVYYCQQRSNWPPWTFGQGTKVEIKR | 53300
Fab VH1-46_IGHD6-6*01_IGHJ1*01 S102A/S103P/S104F/H111F (APFF) & L6_IGKJ1*01 S31V (Fab, V domains shown, Tested as Fab (CH1 with His6/Flag tags, kappa CL) made in E. coli; also called APFF / S31V) VH: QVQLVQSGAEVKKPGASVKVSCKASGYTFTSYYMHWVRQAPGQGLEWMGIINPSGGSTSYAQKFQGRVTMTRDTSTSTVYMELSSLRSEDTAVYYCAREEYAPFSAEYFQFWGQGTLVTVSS VL: EIVLTQSPATLSLSPGERATLSCRASQSVSVYLAWYQQKPGQAPRLLIYDASNRATGIPARFSGSGSGTDFTLTISSLEPEDFAVYYCQQRSNWPPWTFGQGTKVEIKR | 176000
